Exercise: for every item that follows, state its recorded protein stability index.
B1: FUNDC2 (parent)
chain: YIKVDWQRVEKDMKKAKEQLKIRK

# Variants of: B1
# assay-procedure: protein stability index of a GFP-peptide fusion (GPS, HEK-293T) (PSI 1-6); higher = more stable;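 note: lentivirally expressed fusions sorted by FACS into six bins by GFP to DsRed ratio, PSI derived from sequencing read proportions per bin multiplied by bin number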
# measurement-conditions: c terminus: a fixed tail appended
Give bare numbers.

Illustrative cases are given below, each with its answer.
In [3]: df
Out[3]:
   variant_key  recorded_value
0         I22L            2.12
1          W6S            3.31
2         K15G            1.89
3         A16S            1.75
4         K14T            1.92
5         K17V            1.64

For each of the variants below, state protein stability index.
1. K3S
2. I22T
3. K14R
4. Y1N
5. Y1L
6. A16M
7. D5Y

[1.88, 1.57, 2.12, 3.7, 3.22, 1.85, 3.3]
